Assay: Study #2 Phase 1: effect of food (fed vs fasted) on pharmacokinetics of Compound 1A after 400 mg oral Compound 1;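 further: cohort 1b subjects took one oral dose in both fed and fasted states, across two separate periods (E, F) within the single ascending dose phase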
Conditions: human, plasma, po, 400 mg, Tmax, Cohort 1B, 400 mg oral Compound 1, Fed, median

| query smiles | Tmax |
| --- | --- |
| Nc1ncccc1-c1cc(Cc2ccc(COc3ccccn3)cc2)no1 | 3.75 h |

---

Test: Study #1 Phase 1: plasma and urine pharmacokinetics of Compound 1 and Compound 1A after IV infusion of Compound 1 (SAD, MAD, loading regimen)
Settings: both, human, plasma, 300 mg, Tmax, Cohort 9: Compound 1 300 mg/3 hr IV QD × 14 days, Day 7, median
assay metric: Tmax (h)

| compound | result unit | measured |
| --- | --- | --- |
| Nc1ncccc1-c1cc(Cc2ccc(COc3ccccn3)cc2)no1 [Compound 1A] | h | 3 |

---

Experiment: Study #2 Phase 1: pharmacokinetics after single IV and single/multiple oral doses of Compound 1, absolute oral bioavailability
Details: human, plasma, po, 500 mg, Tmax, 500 mg Oral Compound 1, fasted, median
assay metric: Tmax (h)

| query smiles | measured |
| --- | --- |
| Nc1ncccc1-c1cc(Cc2ccc(COc3ccccn3)cc2)no1 | 3 |

---

Experiment: Study #1 Phase 1: plasma and urine pharmacokinetics of Compound 1 and Compound 1A after IV infusion of Compound 1 (SAD, MAD, loading regimen)
Conditions: both, human, plasma, 600 mg, AUC(0-24), Cohort 10: Compound 1 600 mg/3 hr IV QD × 14 days, Day 7, geometric mean
assay metric: AUC(0-t)

| query smiles | measured |
| --- | --- |
| Nc1ncccc1-c1cc(Cc2ccc(COc3ccccn3)cc2)no1 | 217 µg·h/mL |

---

Experiment: Study #1 Phase 1: plasma and urine pharmacokinetics of Compound 1 and Compound 1A after IV infusion of Compound 1 (SAD, MAD, loading regimen)
Conditions: both, human, plasma, 1000 mg, AUC(0-24), Cohort 12 loading regimen: Compound 1 1,000 mg/2 hr IV at 0 & 9 hr, Day 1, geometric mean

| query smiles | result unit | AUC(0-t) |
| --- | --- | --- |
| Nc1ncccc1-c1cc(Cc2ccc(COc3ccccn3)cc2)no1 | µg·h/mL | 211 |

---

Test: Study #1 Phase 1: plasma and urine pharmacokinetics of Compound 1 and Compound 1A after IV infusion of Compound 1 (SAD, MAD, loading regimen)
Details: both, human, plasma, 1000 mg, Tmax, Cohort 11: Compound 1 1,000 mg/2 hr IV, single dose, median
assay metric: Tmax (h)

| molecule | measured |
| --- | --- |
| Nc1ncccc1-c1cc(Cc2ccc(COc3ccccn3)cc2)no1 [Compound 1A] | 2.02 |

---

Experiment: Study #1 Phase 1: plasma and urine pharmacokinetics of Compound 1 and Compound 1A after IV infusion of Compound 1 (SAD, MAD, loading regimen)
Details: both, human, plasma, 1000 mg, AUC(inf), Cohort 11: Compound 1 1,000 mg/2 hr IV, single dose, geometric mean
assay metric: AUC(0-inf) (µg·h/mL)

| compound | measured |
| --- | --- |
| Nc1ncccc1-c1cc(Cc2ccc(COc3ccccn3)cc2)no1 [Compound 1A] | 541 |

---

Experiment: Study #2 Phase 1: pharmacokinetics after single IV and single/multiple oral doses of Compound 1, absolute oral bioavailability
Conditions: human, plasma, oral, 500 mg, AUC(0-24), Day 7, Cohort 2, 500 mg Tablets QD × 14 Days, fed, geometric mean

| query smiles | result unit | AUC(0-t) |
| --- | --- | --- |
| Nc1ncccc1-c1cc(Cc2ccc(COc3ccccn3)cc2)no1 | µg·h/mL | 154 |

---

Experiment: Study #1 Phase 1: plasma and urine pharmacokinetics of Compound 1 and Compound 1A after IV infusion of Compound 1 (SAD, MAD, loading regimen)
Settings: both, human, plasma, 100 mg, AUC(0-t), Cohort 3: Compound 1 100 mg/3 hr IV, single dose, geometric mean [geometric %CV]

| query smiles | AUC(0-t) [ng·h/mL] |
| --- | --- |
| Nc1ncccc1-c1cc(Cc2ccc(COc3ccccn3)cc2)no1 | 47400 |

---

Experiment: Study #1 Phase 1: plasma and urine pharmacokinetics of Compound 1 and Compound 1A after IV infusion of Compound 1 (SAD, MAD, loading regimen)
Details: both, human, plasma, 600 mg, Tmax, Cohort 10: Compound 1 600 mg/3 hr IV QD × 14 days, Day 14, median

| compound | Tmax |
| --- | --- |
| Nc1ncccc1-c1cc(Cc2ccc(COc3ccccn3)cc2)no1 [Compound 1A] | 3 h |

---

Experiment: Study #1 Phase 1: plasma and urine pharmacokinetics of Compound 1 and Compound 1A after IV infusion of Compound 1 (SAD, MAD, loading regimen)
Conditions: both, human, plasma, 1000 mg, AUC(inf), Cohort 11: Compound 1 1,000 mg/1 hr IV, single dose, geometric mean

| query smiles | result unit | AUC(0-inf) |
| --- | --- | --- |
| Nc1ncccc1-c1cc(Cc2ccc(COc3ccccn3)cc2)no1 | µg·h/mL | 536 |

---

Experiment: Study #1 Phase 1: plasma and urine pharmacokinetics of Compound 1 and Compound 1A after IV infusion of Compound 1 (SAD, MAD, loading regimen)
Settings: both, human, plasma, 1000 mg, Cmax, Cohort 12 loading regimen: Compound 1 1,000 mg/2 hr IV at 0 & 9 hr, Day 1, geometric mean
assay metric: Cmax (ng/mL)

| query smiles | assay metric | result unit | measured |
| --- | --- | --- | --- |
| Nc1ncccc1-c1cc(Cc2ccc(COc3ccccn3)cc2)no1 | Cmax | ng/mL | 15700 |

---

Assay: Study #1 Phase 1: plasma and urine pharmacokinetics of Compound 1 and Compound 1A after IV infusion of Compound 1 (SAD, MAD, loading regimen)
Details: both, human, plasma, 10 mg, AUC(0-24), Cohort 1: Compound 1 10 mg/3 hr IV, single dose, geometric mean [geometric %CV]
assay metric: AUC(0-t)

| query smiles | measured |
| --- | --- |
| Nc1ncccc1-c1cc(Cc2ccc(COc3ccccn3)cc2)no1 | 1540 ng·h/mL |

---

Assay: Study #2 Phase 1: pharmacokinetics after single IV and single/multiple oral doses of Compound 1, absolute oral bioavailability
Conditions: human, plasma, po, 500 mg, AUC(0-24), 500 mg Oral Compound 1, fasted, geometric mean
assay metric: AUC(0-t)

| query smiles | measured |
| --- | --- |
| Nc1ncccc1-c1cc(Cc2ccc(COc3ccccn3)cc2)no1 | 59000 ng·h/mL |

---

Test: Study #2 Phase 1: pharmacokinetics after single IV and single/multiple oral doses of Compound 1, absolute oral bioavailability
Settings: human, plasma, iv, 200 mg, AUC(0-t), 200 mg/3 hr IV Compound 1, fasted, geometric mean

| compound | result unit | AUC(0-t) |
| --- | --- | --- |
| Nc1ncccc1-c1cc(Cc2ccc(COc3ccccn3)cc2)no1 [Compound 1A] | ng·h/mL | 86300 |

---

Test: Study #1 Phase 1: plasma and urine pharmacokinetics of Compound 1 and Compound 1A after IV infusion of Compound 1 (SAD, MAD, loading regimen)
Conditions: both, human, plasma, 100 mg, AUC(inf), Cohort 3: Compound 1 100 mg/3 hr IV, single dose, geometric mean [geometric %CV]

| query smiles | AUC(0-inf) (µg·h/mL) |
| --- | --- |
| Nc1ncccc1-c1cc(Cc2ccc(COc3ccccn3)cc2)no1 | 50.4 |

---

Assay: Study #2 Phase 1: pharmacokinetics after single IV and single/multiple oral doses of Compound 1, absolute oral bioavailability;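 further: phase 1 study design: one IV dose, then escalating single oral doses, fed versus fasted single oral dosing, and once-daily oral dosing over 14 days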
Conditions: human, plasma, po, 500 mg, CL/F, 500 mg Oral Compound 1, fasted, geometric mean
assay metric: CL/F (mL/min/kg)

| query smiles | measured |
| --- | --- |
| Nc1ncccc1-c1cc(Cc2ccc(COc3ccccn3)cc2)no1 | 0.418 |

---

Experiment: Compound 1 pH solubility at room temperature
Format: physicochemical
Details: pH 1, simulated gastric fluid, Study A, pH 1
assay metric: solubility (µg/mL)

| query smiles | measured |
| --- | --- |
| Nc1c(-c2cc(Cc3ccc(COc4ccccn4)cc3)no2)ccc[n+]1COP(=O)([O-])O | 3830 |

---

Assay: Study #1 Phase 1: plasma and urine pharmacokinetics of Compound 1 and Compound 1A after IV infusion of Compound 1 (SAD, MAD, loading regimen)
Settings: both, human, plasma, 200 mg, AUC(inf), Cohort 4: Compound 1 200 mg/3 hr IV, single dose, geometric mean [geometric %CV]

| query smiles | AUC(0-inf) (ng·h/mL) |
| --- | --- |
| Nc1ncccc1-c1cc(Cc2ccc(COc3ccccn3)cc2)no1 | 83200 |

---

Assay: Compound 1 pH solubility at room temperature
Format: physicochemical
Settings: phosphate buffer, pH 7, aqueous buffer, Study B, pH 7.0 (with phosphate buffer)
assay metric: solubility (mg/mL)

| query smiles | measured |
| --- | --- |
| Nc1c(-c2cc(Cc3ccc(COc4ccccn4)cc3)no2)ccc[n+]1COP(=O)([O-])O | 20.9 |

---

Assay: Study #1 Phase 1: plasma and urine pharmacokinetics of Compound 1 and Compound 1A after IV infusion of Compound 1 (SAD, MAD, loading regimen)
Details: both, human, plasma, 30 mg, AUC(0-t), Cohort 2: Compound 1 30 mg/3 hr IV, single dose, geometric mean [geometric %CV]

| query smiles | result unit | AUC(0-t) |
| --- | --- | --- |
| Nc1ncccc1-c1cc(Cc2ccc(COc3ccccn3)cc2)no1 | ng·h/mL | 14100 |
